Tested on: E. coli BL21
Assay: MIC against Gram-negative bacteria: E. coli BL21
Type: cell-based
Conditions: E. coli BL21; 96-well plate, 5×10^5 CFU/mL, 37° C., 10 h
outcome-measure: MIC against E. coli BL21 (µg/mL)
Answer with a number only, understood to be in µg/mL.

For the substance shown here, PRT1297 (NACLSSPCKNNGTCTQDPVELYRCACPYSYKGKDCT; listed as Homo sapiens) , give the reported MIC against E. coli BL21.
50

Requested field: MIC against E. coli BL21. Item: PRT1285 (NQDDCRDHRCQNGAQCMDEVNSYSCLCAEGYSGQLCE; listed as Homo sapiens)
12.5

So what does the record say about MIC against E. coli BL21 for PRT1312 (LQPVCTPPCAPEAVCRAGNSCECSLGYEGDGRVCT; listed as Homo sapiens) ?
12.5

Which MIC against E. coli BL21 is reported for this substance? PRT1219 (DHDSCVHGPCQNGGSCLRRLAVSSVLKSRESLPVIIVANEPLQPFLCKCLPGYAGSWCE; listed as Homo sapiens)
50

Which measured MIC against E. coli BL21 value corresponds to PRT1226 (YTASCQDMSCSKQGECLETIGNYTCSCYPGFYGPECE; listed as Homo sapiens) ?
50

Consider the substance PRT1274 (DVDECAEGNGGCQQSCVNMMGSYECHCREGFFLSDNQ; listed as Homo sapiens) and give its measured MIC against E. coli BL21.
50

Query: MIC against E. coli BL21; subject: PRT1324 (PITSCLEQTGKCHPLASCQSTSSGVWSCVCQEGYEGDGFL; listed as Homo sapiens)
25

Requested field: MIC against E. coli BL21. Item: PRT1329 (LPAVCTPPCSAHATCKENNTCECNLDYEGDGITCT; listed as Homo sapiens)
50

* * *

Tested on: Proteus vulgaris
Assay: MIC against Gram-negative bacteria: Proteus vulgaris
Assay type: cell-based
Conditions: P. vulgaris; 10 h cultivation at 37° C.
outcome-measure: MIC (µg/mL)
Report as a plain number; the unit µg/mL is understood.

Name the recorded MIC for PRT1036 (VEDKCEKACRPEEECLALNSTWGCFCRQDLNSSDVHSLQPQLDCG; listed as Homo sapiens) .
50

Which measured MIC value corresponds to PRT900 (VLAPCAPSPCRNGGECRQSEDYESFSCVCPTGWQGQTCE; listed as Homo sapiens) ?
25

Give its MIC value. Item: PRT990 (LDDACVSNPCHEDAICDTNPVNGRAICTCPPGFTGGACD; listed as Homo sapiens)
12.5

Can you look up the measured MIC of PRT920 (DVDECQLMPNACQNGGTCHNTHGGYNCVCVNGWTGEDCS; listed as Homo sapiens) for me?
12.5

Which MIC is reported for this substance? PRT1007 (HVNPCESRPCQNGATCMAQPSGYLCQCAPGYDGQNCS; listed as Homo sapiens)
12.5

Please look up its MIC: PRT1026 (NKETCEHNHRQCSRHAFCTDYATGFCCHCQSKFYGNGKHCL; listed as Homo sapiens)
25

Field request: MIC | item: PRT903 (DINECASDPCRNGANCTDCVDSYTCTCPAGFSGIHCE; listed as Homo sapiens)
50

For PRT975 (LVDWCSRQPCQNGGRCVQTGAYCLCPPGWSGRLCD; listed as Homo sapiens) , what is its reported MIC?
12.5

Give the measured MIC of PRT935 (NIDECASNPCLNQGTCFDDISGYTCHCVLPYTGKNCQ; listed as Homo sapiens) .
12.5

Report MIC for PRT999 (PEDNCTCHHGHCQRSSCVCDVGWTGPECE; listed as Homo sapiens) please.
25

* * *

Test system: Aeromonas hydrophila
Experiment: MIC against Gram-negative bacteria: Aeromonas hydrophila
Type: cell-based
Conditions: Aeromonas hydrophila; 96-well plate, 5×10^5 CFU/mL, 37° C., 10 h
outcome-measure: MIC (μg/mL) A. hydrophila
Hey, just the number and the unit after it is fine.

Please report the recorded MIC (μg/mL) A. hydrophila for PRT66 (DDNICLREPCENYMKCVSVLRFDSSAPFLSSTTVLFRPIHPINGLRCRCPPGFTGDYCE; listed as Homo sapiens) .
12.5 µg/mL

Given the entry PRT44 (LYAQVSQSKPCERTGSCFSGRCVNSTCLCDPGWVGDQCQ; listed as Homo sapiens) , report its measured MIC (μg/mL) A. hydrophila.
25 µg/mL

What does the data say about its MIC (μg/mL) A. hydrophila? Entry: PRT114 (PKYGCNFNNGGCHQDCFEGGDGSFLCGCRPGFRLLDDLVTCA; listed as Homo sapiens)
25 µg/mL

What value of MIC (μg/mL) A. hydrophila has been recorded for this entry: PRT90 (CDCYPVGSTSRSCAPHSGQCPCRPGALGRQCNSCDSPFAEVTASGCRV; listed as Homo sapiens)
12.5 µg/mL

Consider the substance shown here: PRT23 (KKNPCNAEFQNFCIHGECKYIEHLEAVTCKCQQEYFGERCG; listed as Homo sapiens) What is its recorded MIC (μg/mL) A. hydrophila?
12.5 µg/mL

// returns reported MIC (μg/mL) A. hydrophila for input PRT124 (ITDRCSPNMCEHDGRCYQSWDDFICYCELTGYKGETCH; listed as Homo sapiens)
12.5 µg/mL

Could you tell me which MIC (μg/mL) A. hydrophila is on file for PRT18 (CQCNPHGSYGGTCDPATGQCSCRPGVGGLRCDRCEPGFWNFRGIVTDGRSGCTP; listed as Homo sapiens) ?
25 µg/mL

Name the reported MIC (μg/mL) A. hydrophila value associated with the substance PRT34 (ACHPGFYGPDCKLRCSCNNGEMCDRFQGCLCSPGWQGLQCE; listed as Homo sapiens)
25 µg/mL

Please report the recorded MIC (μg/mL) A. hydrophila for PRT89 (TNGQCHCKEFHYRPRGSDSCLPCDCYPVGSTSRSCA; listed as Homo sapiens) .
50 µg/mL

Can you share its MIC (μg/mL) A. hydrophila? I mean this substance: PRT35 (AMDLCARRLLDPCEHQCDPETGRREHRAAGECLCYEGYMKDPVHKHLCI; listed as Homo sapiens)
25 µg/mL

Find the recorded MIC (μg/mL) A. hydrophila belonging to PRT33 (ACELHTFGRTCKERCSGQEGCKSYVFCLPDPYGCSCATGWKGLQCN; listed as Homo sapiens) and report it.
12.5 µg/mL

Requested field: MIC (μg/mL) A. hydrophila. Item: PRT13 (PARSCAEEPCGAGTCKETEGHVICLCPPGYTGEHCN; listed as Homo sapiens)
12.5 µg/mL

Tell me the measured MIC (μg/mL) A. hydrophila of hF VII-EGF1: human coagulation factor VII-EGF1 domain protein, molecular weight about 3.9 kD, recombinant, released from RFP fusion by rTEV (DGDQCASSPCQNGGSCKDQLQSYICFCLPAFEGRNCE; listed as Homo sapiens) , please.
12.5 µg/mL

Any idea what its MIC (μg/mL) A. hydrophila is? The substance is PRT59 (PCTVGDASACLTCAPDNRTRCGTCNTGYMLSQGLCK; listed as Homo sapiens)
12.5 µg/mL

Item PRT96 (AQRFCPDGSPSECHEHADCVLERDGSRSCVCAVGWAGNGILCG; listed as Homo sapiens) has what recorded MIC (μg/mL) A. hydrophila?
12.5 µg/mL

Would you mind telling me what MIC (μg/mL) A. hydrophila value was observed for PRT58 (PCALGEGPACAHCAPDNSTRCGSCNPGYVLAQGLCR; listed as Homo sapiens) ?
12.5 µg/mL

May I ask what MIC (μg/mL) A. hydrophila has been recorded for PRT80 (TNVCDLNPCEHQSVCTRKPSAPHGYTCECPPNYLGPYCE; listed as Homo sapiens) ?
25 µg/mL

Give its MIC (μg/mL) A. hydrophila value. Item: PRT42 (CQCNGHSKCINQSICEKCENLTTGKHCETCISGFYGDPTNGGKCQP; listed as Homo sapiens)
12.5 µg/mL

Please give the measured MIC (μg/mL) A. hydrophila for this substance: PRT17 (AGHPCTRASGHPCLNGASCVPREAAYVCLCPGGFSGPHCE; listed as Homo sapiens)
12.5 µg/mL

Please look up its MIC (μg/mL) A. hydrophila: PRT63 (GCNFNNGGCHQDCFEGGDGSFLCGCRPGFRLLDDLVTCA; listed as Homo sapiens)
25 µg/mL

Endpoint output: MIC (μg/mL) A. hydrophila of PRT15 (GDHPCLPNPCHGGAPCQNLEAGRFHCQCPPGRVGPTCA; listed as Homo sapiens) . Value?
12.5 µg/mL

What value of measured MIC (μg/mL) A. hydrophila is listed for PRT118 (DVDECVGPGGPLCDSLCFNTQGSFHCGCLPGWVLAPNGVSCT; listed as Homo sapiens) ?
12.5 µg/mL

Need MIC (μg/mL) A. hydrophila of PRT73 (TNGQCQCKENYYKLLAQDTCLPCDCFPHGSHSRTCD; listed as Homo sapiens) , thanks.
50 µg/mL

Quick check: MIC (μg/mL) A. hydrophila of PRT21 (NCATPCTEGCECNQGFVLSTSQCV; listed as Homo sapiens) ?
12.5 µg/mL

Sample PRT103 (CSSYGKLCRNGGKCRERPIGFFCDCTFSAYTGPFC; listed as Homo sapiens) — what was its MIC (μg/mL) A. hydrophila?
12.5 µg/mL

Would you kindly share the measured MIC (μg/mL) A. hydrophila for PRT133 (CRGHCSSYGKLCRNGGKCRERPIGFFCDCTFSAYTGPFCS; listed as Homo sapiens) ?
25 µg/mL

Consider the substance shown here: PRT97 (DSRGCARWCPQNSSCVNATACRCNPGFSSFSEIITTPTETCD; listed as Homo sapiens) What is its recorded MIC (μg/mL) A. hydrophila?
12.5 µg/mL

// query MIC (μg/mL) A. hydrophila value for entry PRT81 (TCGPCNCDVSKGFDPDCNKTSGECHCKENHYRPPGSPTCL; listed as Homo sapiens)
25 µg/mL

Any idea what MIC (μg/mL) A. hydrophila was measured for PRT77 (RSGRCTPGVCKNGGTCVNLLVGGFKCDCPSGDFEKPYCQ; listed as Homo sapiens) ?
12.5 µg/mL

Field request: MIC (μg/mL) A. hydrophila | item: PRT67 (EIDLCYSDPCGANGRCRSREGGYTCECFEDFTGEHCE; listed as Homo sapiens)
25 µg/mL

Reference source: patent US9833497B2
